Tested on: GSK3A;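 further: KINOMEscan kinase panel screen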
ASSAY CONDITIONS: concentration: 1 μM, replicates: in singlicate; n = 1
Just a reminder that ties go to Not fulfilled: only %Inh strictly below 3% counts as Fulfilled.

Cc1ccccc1CC(=O)N1CCc2cc(-c3cn(C)c4ncnc(N)c34)ccc21 = Fulfilled
COc1cccc(CC(=O)N2CCc3cc(-c4cn(C)c5ncnc(N)c45)ccc32)c1 = Fulfilled
Cc1ccc(NC(=O)c2ccnc(N3CCCCC3)c2)cc1-c1ccc(C(=O)NCC2CC2)cc1 = Fulfilled
CC(C)c1nc(-c2ccc(F)c(NS(=O)(=O)c3c(F)cccc3F)c2)c(-c2ccnc(Nc3ccc(N4CCOCC4)nc3)n2)s1 = Not fulfilled
COc1cccc(C2=C(Nc3cccc(O)c3)C(=O)NC2=O)c1 = Fulfilled
CN(C)CCNS(=O)(=O)c1ccc(-c2ccnc3[nH]ccc23)cc1 = Fulfilled
Cc1ccc(NC(=O)c2cccc(N3CCCCC3)c2)cc1-c1ccc(C(=O)NCC2CC2)cc1 = Not fulfilled
CS(=O)(=O)c1cccc(CNc2nc(Nc3ccc4c(c3)CCC(=O)N4)ncc2C(F)(F)F)c1 = Not fulfilled

Quick check: does `O=C(Nc1c(F)cccc1F)c1cc(C(=O)c2ccccc2F)c[nH]1` have %Inh under 3%?
Not fulfilled

Quick check: does `CN(c1ccc(NC(=O)N2CCN(CCCN3CCOCC3)CC2)cc1)c1ccnc(Nc2ccc(CS(C)(=O)=O)cc2)n1.Cl` have %Inh under 3%?
Fulfilled

Quick check: does `COc1cccc(-c2nc(-c3ccccc3)[nH]c2-c2ccncc2)c1` have %Inh under 3%?
Fulfilled
